Cited source: patent US20180057604A1

- test.target: T1, human BACE1 ECD
- T1 construct: analyte of the Octet assay (200 nM) and enzyme of the first short substrate assay; also called human BACE1 extracellular domain
- T1 sequence (single chain, as listed by the source limits assumed): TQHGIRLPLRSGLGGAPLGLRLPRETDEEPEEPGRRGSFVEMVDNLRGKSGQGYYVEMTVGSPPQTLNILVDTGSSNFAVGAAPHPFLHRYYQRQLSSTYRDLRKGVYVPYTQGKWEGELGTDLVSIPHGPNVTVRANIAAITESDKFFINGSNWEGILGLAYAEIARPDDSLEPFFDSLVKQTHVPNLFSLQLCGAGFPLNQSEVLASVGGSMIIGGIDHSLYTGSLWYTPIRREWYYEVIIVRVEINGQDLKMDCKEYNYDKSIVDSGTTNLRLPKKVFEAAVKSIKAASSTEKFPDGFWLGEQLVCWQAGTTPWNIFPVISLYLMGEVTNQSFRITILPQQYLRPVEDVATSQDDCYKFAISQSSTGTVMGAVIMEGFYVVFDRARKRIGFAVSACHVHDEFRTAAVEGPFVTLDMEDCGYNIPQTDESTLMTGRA
- experiment: Octet, pH 5.0;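 further: antibodies captured on anti-human capture sensor tips, dissociation monitored in PBS with BSA buffer, kinetics fitted with a one-to-one binding model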
pKd: −log10 of the molar value.
readout.label: pKd

Completed entries (count: 3):
q: # return recorded pKd for entry 6289 (antibody, V domains shown, anti-BACE1 IgG) VH: QLQLQESGPGLVKPSETLSLTCTVSGGSISSSSYYWGWIRQPPGKGLEWIGSIYRSGSTYYNPSLRSRVTISVDTSKNQFSLKLSSVTAADTAVYYCVRVGHGISYFDLWGRGTLVTVSS VL: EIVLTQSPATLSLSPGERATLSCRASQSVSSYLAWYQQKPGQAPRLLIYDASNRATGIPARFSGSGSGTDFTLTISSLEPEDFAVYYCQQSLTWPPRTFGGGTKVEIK
a: 9.41

q: # return recorded pKd for entry 6285 (antibody, V domains shown, anti-BACE1 IgG) VH: QLQLQESGPGLVKPSETLSLTCTVSGGSTSSSSYYWGWIRQPPGKGLEWIGSIYRSGSTYYNPSLKSRVTISVDTSKNQFSLKLSSVTAADTAVYYCARVGHGISYFDLWGRGTLVTVSS VL: EIVLTQSPATLSLSPGERATLSCRASQSVSSYLAWYQQKPGQAPRLLIYDASSRATGIPARFSGSGSGTDFTLTISSLEPEDFAVYYCQQSLTWPPRTFGGGTKVEIK
a: 9.37

q: # return recorded pKd for entry 6272 (antibody, V domains shown, anti-BACE1 IgG) VH: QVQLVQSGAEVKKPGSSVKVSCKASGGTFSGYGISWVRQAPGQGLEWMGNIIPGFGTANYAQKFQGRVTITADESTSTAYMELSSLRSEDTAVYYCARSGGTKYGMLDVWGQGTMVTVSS VL: EIVMTQSPATLSVSPGERATLSCRASQSVSSNLAWYQQKPGQAPRLLIYGASTRATGIPARFSGSGSGTEFTLTISSLQSEDFAVYYCQQLFLWPPRTFGGGTKVEIK
a: > 9.41

Further cases:
q: # return recorded pKd for entry 6288 (antibody, V domains shown, anti-BACE1 IgG) VH: QLQLQESGPGLVKPSETLSLTCTVSGGSTSSSSYYWGWIRQPPGKGLEWIGSIYRSGSTYYNPSLRSRVTISVDTSKNQFSLKLSSVTAADTAVYYCARVGHGISYFDLWGRGTLVTVSS VL: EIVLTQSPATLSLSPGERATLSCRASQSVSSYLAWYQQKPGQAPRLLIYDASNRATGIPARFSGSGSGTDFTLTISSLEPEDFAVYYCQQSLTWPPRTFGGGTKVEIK
a: > 9.68
